- Tested on: Bacteroides fragilis
- testDetails: Antibacterial activity against Bacteroides fragilis by CLSI M11-A6 agar dilution method
- Assay type: functional
Please go through the items and note down their MIC90.

Dear colleague, could you send me MIC90 for each of the items below? Thanks.
1. CC(=O)NC[C@H]1CN(c2ccc(N3CCOCC3)c(F)c2)C(=O)O1
2. CN[C@H](CC(C)C)C(=O)N[C@H]1C(=O)N[C@@H](CC(N)=O)C(=O)N[C@H]2C(=O)N[C@H]3C(=O)N[C@H](C(=O)N[C@H](C(=O)O)c4cc(O)cc(O)c4-c4cc3ccc4O)[C@H](O)c3ccc(c(Cl)c3)Oc3cc2cc(c3O[C@@H]2O[C@H](CO)[C@@H](O)[C@H](O)[C@H]2O[C@H]2C[C@](C)(N)[C@H](O)[C@H](C)O2)Oc2ccc(cc2Cl)[C@H]1O

8 mg/L
64 mg/L

====

Please go through the items and note down their MIC50.
- System: Prevotella oris
- testDetails: Antibacterial activity against Prevotella oris by CLSI M11-A6 agar dilution method
- Format: functional
- assayContext: Segatella oris
One number for each entry, in µg/mL.

structureSmiles: Cc1ncc([N+](=O)[O-])n1CCO
assayTarget: Prevotella oris
measurementLabel: MIC50
unitString: µg/mL
valueReported: 0.5

Continue with the next compound.
Can you look up the measured MIC50 of CC(=O)NC[C@H]1CN(c2ccc(N3CCOCC3)c(F)c2)C(=O)O1 for me?
2

====

- Tested on: Prevotella nigrescens
- testDetails: Antibacterial activity against Prevotella nigrescens by CLSI M11-A6 agar dilution method
- Format: functional
Please go through the items and note down their MIC50.

molecule: CC(=O)NC[C@H]1CN(c2ccc(N3CCOCC3)c(F)c2)C(=O)O1 [LINEZOLID]
assayTarget: Prevotella nigrescens
valueReported: 2 µg/mL

Dear colleague, could you send me MIC50 for each of the items below? Thanks.
1. CCC[C@@H]1C[C@@H](C(=O)N[C@@H]([C@H]2O[C@H](SC)[C@H](O)[C@@H](O)[C@H]2O)[C@H](C)Cl)N(C)C1 [CLINDAMYCIN]
2. CCCCCCCCCC(=O)N[C@@H](Cc1c[nH]c2ccccc12)C(=O)N[C@H](CC(N)=O)C(=O)N[C@@H](CC(=O)O)C(=O)N[C@@H]1C(=O)NCC(=O)N[C@@H](CCCN)C(=O)N[C@@H](CC(=O)O)C(=O)N[C@H](C)C(=O)N[C@@H](CC(=O)O)C(=O)NCC(=O)N[C@H](CO)C(=O)N[C@@H]([C@H](C)CC(=O)O)C(=O)N[C@@H](CC(=O)c2ccccc2N)C(=O)O[C@@H]1C

≤ 0.12 µg/mL
> 128 µg/mL

====

Please go through the items and note down their MIC50.
- Tested on: Hoylesella loescheii
- testDetails: Antibacterial activity against Prevotella loescheii by CLSI M11-A6 agar dilution method
- Type: functional
One number for each entry, in µg/mL.

// solved cases for MIC50 follow
structureSmiles: CC(=O)NC[C@H]1CN(c2ccc(N3CCOCC3)c(F)c2)C(=O)O1
valueReported: 2
--
structureSmiles: CCCCCCCCCCNCCN[C@@]1(C)C[C@H](O[C@H]2[C@H](Oc3c4cc5cc3Oc3ccc(cc3Cl)[C@@H](O)[C@@H](NC(=O)[C@@H](CC(C)C)NC)C(=O)N[C@@H](CC(N)=O)C(=O)N[C@H]5C(=O)N[C@H]3C(=O)N[C@H](C(=O)N[C@H](C(=O)O)c5cc(O)c(CNCP(=O)(O)O)c(O)c5-c5cc3ccc5O)[C@H](O)c3ccc(c(Cl)c3)O4)O[C@H](CO)[C@@H](O)[C@@H]2O)O[C@@H](C)[C@H]1O
valueReported: 8

Dear colleague, could you send me MIC50 for each of the items below? Thanks.
1. Cc1ncc([N+](=O)[O-])n1CCO
2. CN[C@H](CC(C)C)C(=O)N[C@H]1C(=O)N[C@@H](CC(N)=O)C(=O)N[C@H]2C(=O)N[C@H]3C(=O)N[C@H](C(=O)N[C@H](C(=O)O)c4cc(O)cc(O)c4-c4cc3ccc4O)[C@H](O)c3ccc(c(Cl)c3)Oc3cc2cc(c3O[C@@H]2O[C@H](CO)[C@@H](O)[C@H](O)[C@H]2O[C@H]2C[C@](C)(N)[C@H](O)[C@H](C)O2)Oc2ccc(cc2Cl)[C@H]1O

0.5
32

====

- Tested on: Bifidobacterium longum
- testDetails: Antibacterial activity against Bifidobacterium longum by CLSI M11-A6 agar dilution method
- Assay type: functional
Please go through the items and note down their MIC50.

// solved cases for MIC50 follow
compound: CCCCCCCCCCNCCN[C@@]1(C)C[C@H](O[C@H]2[C@H](Oc3c4cc5cc3Oc3ccc(cc3Cl)[C@@H](O)[C@@H](NC(=O)[C@@H](CC(C)C)NC)C(=O)N[C@@H](CC(N)=O)C(=O)N[C@H]5C(=O)N[C@H]3C(=O)N[C@H](C(=O)N[C@H](C(=O)O)c5cc(O)c(CNCP(=O)(O)O)c(O)c5-c5cc3ccc5O)[C@H](O)c3ccc(c(Cl)c3)O4)O[C@H](CO)[C@@H](O)[C@@H]2O)O[C@@H](C)[C@H]1O [TELAVANCIN]
MIC50: ≤ 0.12 µg/mL

compound: CCC[C@@H]1C[C@@H](C(=O)N[C@@H]([C@H]2O[C@H](SC)[C@H](O)[C@@H](O)[C@H]2O)[C@H](C)Cl)N(C)C1 [CLINDAMYCIN]
MIC50: ≤ 0.12 µg/mL

compound: CN[C@H](CC(C)C)C(=O)N[C@H]1C(=O)N[C@@H](CC(N)=O)C(=O)N[C@H]2C(=O)N[C@H]3C(=O)N[C@H](C(=O)N[C@H](C(=O)O)c4cc(O)cc(O)c4-c4cc3ccc4O)[C@H](O)c3ccc(c(Cl)c3)Oc3cc2cc(c3O[C@@H]2O[C@H](CO)[C@@H](O)[C@H](O)[C@H]2O[C@H]2C[C@](C)(N)[C@H](O)[C@H](C)O2)Oc2ccc(cc2Cl)[C@H]1O [VANCOMYCIN]
MIC50: 0.5 µg/mL

Continue with the next compound.
Request - read-out MIC50 | tested on Bifidobacterium longum | compound Cc1ncc([N+](=O)[O-])n1CCO [METRONIDAZOLE]
1 µg/mL

====

- Test system: Clostridium
- testDetails: Antibacterial activity against Clostridium hypermegas by CLSI M11-A6 agar dilution method
- Type: functional
measurementLabel: MIC90 (µg/mL)
One number for each entry, in µg/mL.

structureSmiles: CC(=O)NC[C@H]1CN(c2ccc(N3CCOCC3)c(F)c2)C(=O)O1
valueReported: 4

Continue with the next compound.
Can you look up the measured MIC90 of CCCCCCCCCC(=O)N[C@@H](Cc1c[nH]c2ccccc12)C(=O)N[C@H](CC(N)=O)C(=O)N[C@@H](CC(=O)O)C(=O)N[C@@H]1C(=O)NCC(=O)N[C@@H](CCCN)C(=O)N[C@@H](CC(=O)O)C(=O)N[C@H](C)C(=O)N[C@@H](CC(=O)O)C(=O)NCC(=O)N[C@H](CO)C(=O)N[C@@H]([C@H](C)CC(=O)O)C(=O)N[C@@H](CC(=O)c2ccccc2N)C(=O)O[C@@H]1C for me?
8

====

- Tested on: Ruminococcus obeum
- testDetails: Antibacterial activity against Ruminococcus obeum by CLSI M11-A6 agar dilution method
- Type: functional
- assayContext: Blautia obeum
measurementLabel: MIC50 (µg/mL)
Answers are plain numbers, in µg/mL.

// solved cases for MIC50 follow
structureSmiles: CN[C@H](CC(C)C)C(=O)N[C@H]1C(=O)N[C@@H](CC(N)=O)C(=O)N[C@H]2C(=O)N[C@H]3C(=O)N[C@H](C(=O)N[C@H](C(=O)O)c4cc(O)cc(O)c4-c4cc3ccc4O)[C@H](O)c3ccc(c(Cl)c3)Oc3cc2cc(c3O[C@@H]2O[C@H](CO)[C@@H](O)[C@H](O)[C@H]2O[C@H]2C[C@](C)(N)[C@H](O)[C@H](C)O2)Oc2ccc(cc2Cl)[C@H]1O
assayTarget: Ruminococcus obeum
MIC50 (µg/mL): 0.5

structureSmiles: CC(=O)NC[C@H]1CN(c2ccc(N3CCOCC3)c(F)c2)C(=O)O1
assayTarget: Ruminococcus obeum
MIC50 (µg/mL): 1

Continue with the next molecule.
Request - read-out MIC50 | tested on Ruminococcus obeum | molecule CCCCCCCCCC(=O)N[C@@H](Cc1c[nH]c2ccccc12)C(=O)N[C@H](CC(N)=O)C(=O)N[C@@H](CC(=O)O)C(=O)N[C@@H]1C(=O)NCC(=O)N[C@@H](CCCN)C(=O)N[C@@H](CC(=O)O)C(=O)N[C@H](C)C(=O)N[C@@H](CC(=O)O)C(=O)NCC(=O)N[C@H](CO)C(=O)N[C@@H]([C@H](C)CC(=O)O)C(=O)N[C@@H](CC(=O)c2ccccc2N)C(=O)O[C@@H]1C
0.5
